experiment: CASP1-PYCARD signaling inhibition in yeast, confirmatory test, counterassay for NLRP3 inhibitor program, one-dose (AID 488784); conditions: yeast expressing Caspase-1-ASC, luminescence counter screen; at 10 µM
The campaign covered roughly 1,000 compounds. About 700 (70%) were called active. Cut-off read from the data, not from the text of the source: active = inhibition above about 50%; inactive = the rest. So high a share suggests a set chosen from earlier hits. Not all results are given here.
Your response should consist of one outcome taken from active, inactive

Answered examples (3):
Cc1ccc(-c2nc3ccccc3c(=O)n2-c2ccc(Br)cn2)cc1 : inactive
O=C1/C(=C\c2ccc3c(c2)OCO3)N2CCC1CC2 : active
Cc1cc2ccccn2c1C(C[N+](=O)[O-])c1c(F)cccc1Cl (centres undefined) : inactive

Okay, next one:
**Query** Recorded call for CCCCCCCCCCCCn1ccc(=N)cc1 ?
**Result** active
